FYI, the data here is from patent US20240409645A1.

TEST_TARGET: T1, human IL-2Rβ (human, UniProt P14784 27-240, limits assumed)
T1 construct: Recombinant protein, coated (ELISA) or immobilised on CM5 (SPR); also called hu IL-2R; interleukin 2 receptor β-chain
T1 sequence: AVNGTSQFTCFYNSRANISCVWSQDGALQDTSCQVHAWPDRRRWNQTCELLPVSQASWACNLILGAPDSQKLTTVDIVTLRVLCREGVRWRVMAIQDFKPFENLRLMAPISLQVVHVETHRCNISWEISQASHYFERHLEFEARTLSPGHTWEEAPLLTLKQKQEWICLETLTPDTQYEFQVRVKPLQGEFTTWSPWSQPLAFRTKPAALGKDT
EXPERIMENT_SUMMARY: P.E. binding ELISA on coated protein
Experimental: In a binding ELISA, human or mouse IL-2Rα, IL-2Rβ and IL-2Rγ proteins were coated directly on maxisorp microtiter plates overnight at 4° C. Free binding sites were blocked using 4% Marvel in PBS for 1 hour. Next, 1:5 dilution of P.E. in 1% Marvel/PBS were added to wells and incubated for 1 hour. […] Binding specificity was determined based on O.D. at 450 nm values compared to negative controls.
Recorded P.E. binding ELISA OD by entry
Give a bare numeral; the unit OD450 nm is implied.

// solved cases for P.E. binding ELISA OD follow
[
  {
    "BINDER": "FJ1427 P035MP03B11 (VHH, soluble VHH in periplasmic extract; also called clone nr) VHH: EVQLVESGGGLVQAGGSLRLACALSGDVFVRYTMAWFRQAPGKEREFVASVTDSGRTTDYVASVQGRFTVSRDNNKNTVYLQMNSLKPEDTAVYYCAANTDYFQIRSLDRNTWGQGTQVTVSS",
    "READOUT_UNITS": "OD450 nm",
    "P.E. binding ELISA OD": 0.987
  },
  {
    "BINDER": "FJ1427 P035MP03D02 (VHH, soluble VHH in periplasmic extract; also called clone nr) VHH: QVQLQESGGGLVQTGGSLRLSCAVSGSRFISDVMGWYRQVPGKQRELVADMADGGSAKYADSVKGRFSILRDSVKNTVYLQMSSLKPEDTGIYYCKAGLWLAGRHSDYWGQGTQVTVSS",
    "READOUT_UNITS": "OD450 nm",
    "P.E. binding ELISA OD": 0.116
  },
  {
    "BINDER": "FJ1427_P035MP03E06 (VHH, soluble VHH in periplasmic extract; also called clone nr) VHH: QVQLVESGGGLVQAGRSLGLSCAASGFTFDNYAMSWVRQAPGKGLEWVSSITGAGRGTHYADSVKGRFTISRDNAKNTLYLQMNSLKPEDTAVYYCAKYSSSTYYPPTPARGTDYRGPGTQVTVSS",
    "READOUT_UNITS": "OD450 nm",
    "P.E. binding ELISA OD": 0.299
  },
  {
    "BINDER": "FJ1427_P035MP03G08 (VHH, soluble VHH in periplasmic extract; also called clone nr) VHH: QVQLVESGGGLVQAGGSLRLACALSGDVFVRYTMAWFRQAPGKGREFVASVTDSGRTTDYVASVQGRFTVSRDNNKNTVYLQMNSLKPEDTAVYYCAANTDYFQIRSLDRNTWGQGTQVTVSS",
    "READOUT_UNITS": "OD450 nm",
    "P.E. binding ELISA OD": 1.26
  },
  {
    "BINDER": "FJ1427_P035MP03H09 (VHH, soluble VHH in periplasmic extract; also called clone nr) VHH: QVQLVESGGGLVQAGGSLRLSCAASGSIFSINAMGWFRQAPGKEREFVAAISRSGGSTAYVDSVKGRFTISRDNSKNMVHLQMNSLKSEDEAVYYCAATAAVGWTSRWITTDFDSWGQGTQVTVSS",
    "READOUT_UNITS": "OD450 nm",
    "P.E. binding ELISA OD": 0.166
  }
]

Enquiry: Output P.E. binding ELISA OD of FJ1427 P035MP03C08 (VHH, soluble VHH in periplasmic extract; also called clone nr) VHH: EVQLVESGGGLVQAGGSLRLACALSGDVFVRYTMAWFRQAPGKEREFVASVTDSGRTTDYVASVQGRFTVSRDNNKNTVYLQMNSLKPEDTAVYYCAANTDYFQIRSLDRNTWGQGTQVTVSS
Return: 0.972

Enquiry: Give reported P.E. binding ELISA OD value for FJ1427 P035MP03B10 (VHH, soluble VHH in periplasmic extract; also called clone nr) VHH: QVQLVESGGGLVQAGGSLRLSCVVSGDVFVRYTMAWFRQAPGKEREFVAVVTDSGRTTEYVDSVKGRFTVSRDNAKNTVYLQMNNLKPEDTAVYYCAANTDYFQIRSVDNNAWGQGTQVTVSS
Return: 0.286
